# SYSTEM NAME: KRAS G12S (Homo sapiens, UniProt P01116+P62937, G12S)
# Sequence (P01116 1-169 isoform P01116-2 G12S limits assumed): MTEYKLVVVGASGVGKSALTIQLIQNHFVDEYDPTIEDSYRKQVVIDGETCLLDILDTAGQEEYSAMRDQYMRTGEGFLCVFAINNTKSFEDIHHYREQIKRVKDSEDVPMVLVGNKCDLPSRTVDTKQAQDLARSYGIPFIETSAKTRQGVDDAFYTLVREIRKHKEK
# Sequence (P62937 whole entry): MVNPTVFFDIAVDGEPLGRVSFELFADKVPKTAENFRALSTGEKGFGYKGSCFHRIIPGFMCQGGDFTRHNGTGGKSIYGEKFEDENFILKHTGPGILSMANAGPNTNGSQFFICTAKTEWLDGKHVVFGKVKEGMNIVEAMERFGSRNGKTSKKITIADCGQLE
# EXPERIMENTAL DETAILS: Disruption of BRAF RBD interaction with Ras (FRET / MOA assay, with Cyclophilin A)
# Type: biochemical
# MEASUREMENT CONTEXT: read-out: KRAS G12S FRET data, IC50
Recorded IC50 values for a group of compounds are listed next.

Example results:
- COMPOUND: "CCn1c(-c2cccnc2[C@H](C)OC)c2c3cc(ccc31)-c1csc(n1)C[C@H](NC(=O)[C@H](C(C)C)N(C)C(=O)NC)C(=O)N1CCC[C@H](N1)C(=O)OCC(C)(C)C2 [Example A137]"
  IC50: "1 to 10 µM"
- COMPOUND: "CCn1c(-c2cccnc2[C@H](C)OC)c2c3cc(ccc31)-c1cc(O)cc(c1)C[C@H](NS(=O)(=O)c1cnc[nH]1)C(=O)N1CCC[C@H](N1)C(=O)OCC(C)(C)C2 (racemic) [Example A192]"
  IC50: "> 10 µM"

Here is another compound to look at.
Req: Which value of IC50 has been reported for CCC(=O)N1CC[C@H](C(=O)N(C)[C@H](C(=O)N[C@H]2Cc3cc(O)cc(c3)-c3ccc4c(c3)c(c(-c3ccccc3CCOC)n4CC)CC(C)(C)COC(=O)[C@@H]3CCCN(N3)C2=O)C(C)C)C1 [Example A34] in the records?
Resp: 1 to 10 µM

----------
Recorded IC50 values for a group of molecules are listed next.
# SYSTEM NAME: NRAS Q61R (Homo sapiens, UniProt P01111+P62937, Q61R)
# Sequence (P01111 whole entry Q61R, one chain of several): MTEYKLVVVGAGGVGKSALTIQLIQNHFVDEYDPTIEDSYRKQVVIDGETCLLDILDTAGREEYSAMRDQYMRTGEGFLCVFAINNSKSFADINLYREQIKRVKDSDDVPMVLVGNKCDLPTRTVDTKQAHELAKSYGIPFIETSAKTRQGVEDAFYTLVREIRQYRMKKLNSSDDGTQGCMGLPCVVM
# EXPERIMENTAL DETAILS: Ras-Raf disruption / FRET / MOA assay (BRAF RBD)
# Assay type: biochemical
# MEASUREMENT CONTEXT: NRAS Q61R; read-out: NRAS Q61R FRET data IC50

- MOLECULE: "CCn1c(-c2cccnc2[C@H](C)OC)c2c3cc(ccc31)-c1cc(O)cc(c1)C[C@H](NC(=O)[C@H](C(C)C)N(C)C(=O)N1CCN(C(=O)[C@@H]3CN3)CC1=O)C(=O)N1CCC[C@H](N1)C(=O)OCC(C)(C)C2 (atropisomer, axis not shown) [Example 205]"
  SYSTEM NAME: "NRAS Q61R (Homo sapiens, UniProt P01111+P62937, Q61R)"
  IC50: "100 to 1000 nM"

Here is another molecule to look at.
Req: Which value of IC50 has been reported for CCn1c(-c2cccnc2[C@H](C)OC)c2c3cc(ccc31)-c1csc(n1)C[C@H](NC(=O)[C@H](C(C)C)N(C)C(=O)N1CC[C@H]1CN(C)C(=O)[C@@H]1CN1)C(=O)N1CCC[C@H](N1)C(=O)OCC(C)(C)C2 [Example 235] in the records?
Resp: 1000 to 10000 nM

----------
# SYSTEM NAME: NRAS G12C (Homo sapiens, UniProt P01111+P62937, G12C)
# Sequence (P01111 whole entry G12C, one chain of several): as the sequence (P01111 whole entry Q61R, one chain of several) above, with G12C, R61Q counted along it
# EXPERIMENTAL DETAILS: Ras-Raf disruption / FRET / MOA assay (BRAF RBD)
# Format: biochemical
# MEASUREMENT CONTEXT: NRAS G12C; read-out: NRAS G12C FRET data IC50
Recorded IC50 values for a group of compounds are listed next.

- COMPOUND: "CCn1c(-c2cccnc2[C@H](C)OC)c2c3cc(ccc31)-c1cc(O)cc(c1)C[C@H](NC(=O)[C@H](C(C)C)N(C)C(=O)[C@@H]1CCN(C(=O)[C@H]3CN3)C1)C(=O)N1CCC[C@H](N1)C(=O)OCC(C)(C)C2 (atropisomer, axis not shown)"
  SYSTEM NAME: "NRAS G12C (Homo sapiens, UniProt P01111+P62937, G12C)"
  IC50: "< 10 nM"

Here is another compound to look at.
Req: Which value of IC50 has been reported for CCn1c(-c2cccnc2[C@H](C)OC)c2c3cc(ccc31)-c1cc(O)cc(c1)C[C@H](NC(=O)[C@H](C(C)C)N(C)C(=O)[C@]1(F)CCN(C(=O)[C@H]3CN3)C1)C(=O)N1CCC[C@H](N1)C(=O)OCC(C)(C)C2 (atropisomer, axis not shown) in the records?
Resp: < 10 nM
